# target-or-system: IκB-α kinase
# assay-procedure: IκB-α kinase inhibition, in vitro kinase assay
# Type: biochemical
For each record, check the reported IC50: if it is below 0.01 µM write yes (1), else write no (0).

See these solved cases before continuing.
compound	label-value
COc1ccc(CNc2nc(NCCO)nc3c(C)n[nH]c23)c(O)c1O	no (0)
CC[C@H](CO)Nc1nc(Nc2ccc(Cl)c(C(=O)O)c2)c2[nH]nc(C(C)C)c2n1	yes (1)
Cc1n[nH]c2c(NCc3ccccc3)nc(NCCO)nc12 [2-hydroxyethylamino; benzylamino; methyl]	no (0)
CC[C@H](CO)Nc1nc(NCc2ccc(OC)c(O)c2O)c2[nH]nc(C(C)C)c2n1	yes (1)
CC[C@H](CO)Nc1nc(NCc2ccc(Cl)c(O)c2O)c2[nH]nc(C(C)C)c2n1	no (0)

Problem: Is IC50 of CC(C)c1n[nH]c2c(NCc3ccccc3)nc(NCCN)nc12 [Example 14] strictly below 0.01 µM?
Solution: no (0)
